- Tested on: C. albicans SC5413
- Assay type: cell-based, Candida albicans
- measurement_context: +0 μg/mL KKOO (control); RPMI1640, 37 °C, 48 h; azole MICs unclear (intermediate phenotype)
For each entry below, report its MIC of antifungal in combination with KKOO value.
One number for each entry, in µg/mL.

smiles_representation | unit_name | assay_value
CC[C@H](C)C[C@H](C)CCCCCCCCC(=O)N[C@H]1C[C@@H](O)[C@@H](NCCN)NC(=O)[C@@H]2[C@@H](O)CCN2C(=O)[C@H]([C@H](O)CCN)NC(=O)[C@H]([C@H](O)[C@@H](O)c2ccc(O)cc2)NC(=O)[C@@H]2C[C@@H](O)CN2C(=O)[C@H]([C@@H](C)O)NC1=O | µg/mL | 0.25

Would you kindly look at the next entry?
Incoming: Give its MIC of antifungal in combination with KKOO value. Item: C[C@@H]1[C@H](O)[C@@H](C)/C=C/C=C/C=C/C=C/C=C/C=C/C=C/[C@H](O[C@@H]2O[C@H](C)[C@@H](O)[C@H](N)[C@@H]2O)C[C@@H]2O[C@](O)(C[C@@H](O)C[C@@H](O)[C@H](O)CC[C@@H](O)C[C@@H](O)CC(=O)O[C@H]1C)C[C@H](O)[C@H]2C(=O)O
Outgoing: 1

* * *

- System: C. neoformans H99
- test: microbe, parasite or virus in culture
- Type: cell-based, Cryptococcus neoformans
- measurement_context: Table S1; unit and conditions not given (MICs elsewhere in μg/mL)
Field: MIC (SAR screen peptides). Provide a value for each of the substances that follow.
One number for each entry.

Previously resolved entries follow.
substance | study_system | assay_value
WGGIOO{D-Asn}YA [N7n, D-Asn7 epimer of KKOO] | C. neoformans H99 | 32
{D-Trp}GGIOONYA [W1w, D-Trp1 epimer of KKOO] | C. neoformans H99 | 16
WGGIOONYA [KKOO-NHMe, C′ methylamide version of KKOO] | C. neoformans H99 | 8
WGGIKONYA [K6O, single ornithine-substituted AW9-Ma derivative] | C. neoformans H99 | 32

Shift focus to the following entry.
Incoming: Tell me reported MIC (SAR screen peptides) for W{Hyp}GIOONYA [G2HYP, hydroxyproline at position 2, C′ NH2] , tested with C. neoformans H99.
Outgoing: 8

* * *

Would you mind telling me the reported MIC of antifungal in combination with (FITC)KKOO of each entry?
- System: C. neoformans H99
- Assay type: cell-based, Cryptococcus neoformans
- measurement_context: +4 μg/mL (FITC)KKOO; RPMI1640, 37 °C
- Description: All microdilution assays with fungi were carried out in accordance with CLSI protocols from M27 for yeasts and M38 for filamentous fungi, respectively, unless otherwise specified.[64],[65] Briefly, 96-well plates were charged with RPMI1640 media, with operating volume in the first column, 200 μL, and half operating volume, 100 μL, in the remaining wells. Drug stock solution in DMSO was aliquoted into the first well in each row. […]
One number for each entry, in µg/mL.

Observe how each entry below is paired with its result.
compound | assay_value
C[C@@H]1[C@H](O)[C@@H](C)/C=C/C=C/C=C/C=C/C=C/C=C/C=C/[C@H](O[C@@H]2O[C@H](C)[C@@H](O)[C@H](N)[C@@H]2O)C[C@@H]2O[C@](O)(C[C@@H](O)C[C@@H](O)[C@H](O)CC[C@@H](O)C[C@@H](O)CC(=O)O[C@H]1C)C[C@H](O)[C@H]2C(=O)O [AMB, amphotericin B] | 0.125
OC(Cn1cncn1)(Cn1cncn1)c1ccc(F)cc1F [FLC, fluconazole] | 2
CCC(C)n1ncn(-c2ccc(N3CCN(c4ccc(OCC5COC(Cn6cncn6)(c6ccc(Cl)cc6Cl)O5)cc4)CC3)cc2)c1=O (stereo not shown) [ITR, itraconazole] | 0.062

Incoming: Report MIC of antifungal in combination with (FITC)KKOO for CC[C@H](C)C[C@H](C)CCCCCCCCC(=O)N[C@H]1C[C@@H](O)[C@@H](NCCN)NC(=O)[C@@H]2[C@@H](O)CCN2C(=O)[C@H]([C@H](O)CCN)NC(=O)[C@H]([C@H](O)[C@@H](O)c2ccc(O)cc2)NC(=O)[C@@H]2C[C@@H](O)CN2C(=O)[C@H]([C@@H](C)O)NC1=O [CAS, caspofungin] please.
Outgoing: 16

* * *

Record form. Attribute: MIC of antifungal in combination with KKOO. Fill in for each entry.
- Test system: Cn MRL862
- Assay type: cell-based, Cryptococcus neoformans
- measurement_context: +0 μg/mL KKOO (control); RPMI1640, 37 °C, 48 h
Give bare numbers, in µg/mL.

# batch: return MIC of antifungal in combination with KKOO for each of the 4 compounds below
1. CC[C@H](C)C[C@H](C)CCCCCCCCC(=O)N[C@H]1C[C@@H](O)[C@@H](NCCN)NC(=O)[C@@H]2[C@@H](O)CCN2C(=O)[C@H]([C@H](O)CCN)NC(=O)[C@H]([C@H](O)[C@@H](O)c2ccc(O)cc2)NC(=O)[C@@H]2C[C@@H](O)CN2C(=O)[C@H]([C@@H](C)O)NC1=O [CAS, caspofungin]
2. OC(Cn1cncn1)(Cn1cncn1)c1ccc(F)cc1F [FLC, fluconazole]
3. C[C@@H]1[C@H](O)[C@@H](C)/C=C/C=C/C=C/C=C/C=C/C=C/C=C/[C@H](O[C@@H]2O[C@H](C)[C@@H](O)[C@H](N)[C@@H]2O)C[C@@H]2O[C@](O)(C[C@@H](O)C[C@@H](O)[C@H](O)CC[C@@H](O)C[C@@H](O)CC(=O)O[C@H]1C)C[C@H](O)[C@H]2C(=O)O [AMB, amphotericin B]
4. CCC(C)n1ncn(-c2ccc(N3CCN(c4ccc(OCC5COC(Cn6cncn6)(c6ccc(Cl)cc6Cl)O5)cc4)CC3)cc2)c1=O (stereo not shown) [ITR, itraconazole]

Outgoing:
[16, 32, 0.25, 0.062]

* * *

- Tested on: Cg FKS2 S663P
- test: Drug synergy (MIC in peptide-supplemented media)
- Type: cell-based, Candida glabrata
- measurement_context: +0 μg/mL KKOO-NH2 (control); RPMI1640, 37 °C, 48 h
assay_readout: MIC of antifungal in combination with KKOO-NH2 (µg/mL)
Numbers only, in µg/mL.

compound | unit_name | assay_value
CCC(C)n1ncn(-c2ccc(N3CCN(c4ccc(OCC5COC(Cn6cncn6)(c6ccc(Cl)cc6Cl)O5)cc4)CC3)cc2)c1=O (stereo not shown) | µg/mL | 0.031
C[C@@H]1[C@H](O)[C@@H](C)/C=C/C=C/C=C/C=C/C=C/C=C/C=C/[C@H](O[C@@H]2O[C@H](C)[C@@H](O)[C@H](N)[C@@H]2O)C[C@@H]2O[C@](O)(C[C@@H](O)C[C@@H](O)[C@H](O)CC[C@@H](O)C[C@@H](O)CC(=O)O[C@H]1C)C[C@H](O)[C@H]2C(=O)O | µg/mL | 0.25
OC(Cn1cncn1)(Cn1cncn1)c1ccc(F)cc1F | µg/mL | 0.5

Moving on to the next compound.
Incoming: Provide the documented MIC of antifungal in combination with KKOO-NH2 with Cg FKS2 S663P as the system for CC[C@H](C)C[C@H](C)CCCCCCCCC(=O)N[C@H]1C[C@@H](O)[C@@H](NCCN)NC(=O)[C@@H]2[C@@H](O)CCN2C(=O)[C@H]([C@H](O)CCN)NC(=O)[C@H]([C@H](O)[C@@H](O)c2ccc(O)cc2)NC(=O)[C@@H]2C[C@@H](O)CN2C(=O)[C@H]([C@@H](C)O)NC1=O
Outgoing: 4

* * *

Assignment: determine reported MIC of antifungal in combination with KKOO-NH2 for the given molecules.
- Test system: C. auris B11245
- Assay type: cell-based, Candida auris
- measurement_context: +2 μg/mL KKOO-NH2; RPMI1640, 37 °C, 48 h; CAS: paradoxical growth, MIC = well with <20% growth
Give bare numbers, in µg/mL.

Count: 3. Required value per item: MIC of antifungal in combination with KKOO-NH2.
1. CCC(C)n1ncn(-c2ccc(N3CCN(c4ccc(OCC5COC(Cn6cncn6)(c6ccc(Cl)cc6Cl)O5)cc4)CC3)cc2)c1=O (stereo not shown)
2. C[C@@H]1[C@H](O)[C@@H](C)/C=C/C=C/C=C/C=C/C=C/C=C/C=C/[C@H](O[C@@H]2O[C@H](C)[C@@H](O)[C@H](N)[C@@H]2O)C[C@@H]2O[C@](O)(C[C@@H](O)C[C@@H](O)[C@H](O)CC[C@@H](O)C[C@@H](O)CC(=O)O[C@H]1C)C[C@H](O)[C@H]2C(=O)O
3. CC[C@H](C)C[C@H](C)CCCCCCCCC(=O)N[C@H]1C[C@@H](O)[C@@H](NCCN)NC(=O)[C@@H]2[C@@H](O)CCN2C(=O)[C@H]([C@H](O)CCN)NC(=O)[C@H]([C@H](O)[C@@H](O)c2ccc(O)cc2)NC(=O)[C@@H]2C[C@@H](O)CN2C(=O)[C@H]([C@@H](C)O)NC1=O

Outgoing:
1: 0.062; 2: 0.5; 3: 0.125
